Target System: T1, CAPRIN-1 protein expressed on the membrane surface of human cancer cells (human, UniProt Q14444 2-709)
T1 sequence (looked up): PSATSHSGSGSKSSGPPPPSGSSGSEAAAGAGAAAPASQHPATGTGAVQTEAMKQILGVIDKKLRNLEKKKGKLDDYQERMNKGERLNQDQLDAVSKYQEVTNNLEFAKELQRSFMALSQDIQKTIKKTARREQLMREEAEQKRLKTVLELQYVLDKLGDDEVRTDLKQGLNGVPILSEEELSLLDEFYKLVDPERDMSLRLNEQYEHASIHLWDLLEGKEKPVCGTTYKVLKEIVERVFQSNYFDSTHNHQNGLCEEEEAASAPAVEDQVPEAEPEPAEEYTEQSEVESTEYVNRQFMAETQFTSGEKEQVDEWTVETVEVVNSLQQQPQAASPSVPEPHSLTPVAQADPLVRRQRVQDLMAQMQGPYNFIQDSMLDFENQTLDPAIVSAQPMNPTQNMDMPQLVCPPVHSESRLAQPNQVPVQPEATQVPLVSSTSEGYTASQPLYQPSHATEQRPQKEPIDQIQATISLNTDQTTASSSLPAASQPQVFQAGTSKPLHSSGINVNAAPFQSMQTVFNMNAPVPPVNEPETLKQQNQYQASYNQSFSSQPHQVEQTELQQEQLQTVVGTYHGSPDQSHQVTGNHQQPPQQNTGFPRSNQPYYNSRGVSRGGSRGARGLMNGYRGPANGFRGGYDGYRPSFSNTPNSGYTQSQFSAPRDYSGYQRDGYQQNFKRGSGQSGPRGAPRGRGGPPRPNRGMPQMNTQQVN
Assay Comment: cell-based or functional assay
Field: ADCC cytotoxic activity (51Cr release) on FaDu. Provide a value for each of the binders that follow.

Entry humanized antibody #9 (antibody, V domains shown) VH: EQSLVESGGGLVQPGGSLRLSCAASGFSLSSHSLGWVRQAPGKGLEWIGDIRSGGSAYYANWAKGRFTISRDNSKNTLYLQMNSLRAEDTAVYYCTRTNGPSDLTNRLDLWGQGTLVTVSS VL: DIVLTQSPSSLSASVGDRVTINCQASQSLYNNENLAWFQQKPGKVPKRLIYGASTLASGVSSRFSGSGSGTEFTLTISSLQCEDFAIYYCLGEFSCGSADCFAFGGGTKVEIK ; ADCC cytotoxic activity (51Cr release) on FaDu = ≥ 35%

Sample humanized antibody #5 (antibody, V domains shown) VH: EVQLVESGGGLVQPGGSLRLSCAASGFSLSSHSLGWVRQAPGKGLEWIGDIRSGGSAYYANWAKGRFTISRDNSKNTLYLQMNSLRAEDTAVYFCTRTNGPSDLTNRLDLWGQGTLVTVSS VL: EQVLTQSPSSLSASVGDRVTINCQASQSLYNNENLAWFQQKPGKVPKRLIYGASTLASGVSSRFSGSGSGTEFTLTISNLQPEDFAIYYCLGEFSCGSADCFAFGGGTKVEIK ; ADCC cytotoxic activity (51Cr release) on FaDu observed: ≥ 40%

binder humanized antibody #8 (antibody, V domains shown) VH: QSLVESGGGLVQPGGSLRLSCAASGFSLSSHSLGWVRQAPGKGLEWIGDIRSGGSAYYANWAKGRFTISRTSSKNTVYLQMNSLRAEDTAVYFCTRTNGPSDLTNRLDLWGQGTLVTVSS VL: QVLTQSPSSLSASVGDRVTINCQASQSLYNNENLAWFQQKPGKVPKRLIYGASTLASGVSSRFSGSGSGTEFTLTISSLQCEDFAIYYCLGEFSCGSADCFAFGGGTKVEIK , ADCC cytotoxic activity (51Cr release) on FaDu observed: ≥ 35%

Looking up humanized antibody #1 (antibody, V domains shown) VH: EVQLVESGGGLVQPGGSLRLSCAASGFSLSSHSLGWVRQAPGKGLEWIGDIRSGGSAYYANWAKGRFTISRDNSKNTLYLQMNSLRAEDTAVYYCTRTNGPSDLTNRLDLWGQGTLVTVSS VL: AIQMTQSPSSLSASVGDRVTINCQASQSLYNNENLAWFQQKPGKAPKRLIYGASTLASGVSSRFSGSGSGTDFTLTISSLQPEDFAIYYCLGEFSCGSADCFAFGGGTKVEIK , I see its ADCC cytotoxic activity (51Cr release) on FaDu listed as ≥ 35%
